Measured values drawn from paper PMC3538727 for this set.

Entries annotated with measured melting point

Illustrative cases are given below, each with its answer.
compound="CC(=O)N1CCC(C(=O)NC(CCN2CCN(c3ccc(C#N)cc3)CC2)c2ccccc2)CC1 (stereo not shown) [Compound 23e]" readout_name="melting point" obs_value="100 to 105 °C"
compound="N#Cc1ccc(N2CCN(CCC(NC(=O)c3ccccc3)c3ccccc3)CC2)cc1 (stereo not shown) [Compound 23a]" readout_name="melting point" obs_value="152 to 155 °C"
compound="N#CCc1ccc(N2CCN(CCC(NC(=O)c3ccc(F)cc3)c3ccccc3)CC2)cc1 (stereo not shown) [Compound 13a]" readout_name="melting point" obs_value="115 to 119 °C"

// next item, melting point requested
Documented melting point of N#Cc1ccc(N2CCN(CCC(NC(=O)C3CCN(C(=O)c4ccccc4)CC3)c3ccccc3)CC2)cc1 (stereo not shown) [Compound 23f] : 121 to 124 °C

###

Biological target: CCR5 (Homo sapiens)
Construct: expressed in transfected cells
Assay: Cell-cell fusion assay (CCF assay, CCR5-mediated fusion)
Format: cell-based
Conditions: relative to 9e
readout-name: fold loss of CCR5 fusion potency in comparison to 9e (fold)
Your answer is read as fold, so omit the unit and give the number.

Past entries and their recorded results:
molecule="N#Cc1ccc(N2CCN(CCC(NC(=O)c3ccc(Cl)cc3)c3ccccc3)CC2)cc1 (centres unmarked) [Compound 23b]" obs_value=5
molecule="N#Cc1ccc(N2CCN(CCC(NC(=O)c3ccc(F)cc3)c3ccc(Cl)cc3)CC2)cc1 (centres unmarked) [Compound 9f]" obs_value=5
molecule="N#Cc1ccc(N2CCN(CCC(NC(=O)c3ccccc3)c3ccccc3)CC2)cc1 (centres unmarked) [Compound 23a]" obs_value=4

Form field fold loss of CCR5 fusion potency in comparison to 9e, entry N#Cc1ccc(N2CCN(CCC(NC(=O)c3ccc(C(F)(F)F)cc3)c3ccccc3)CC2)cc1 (centres unmarked) [Compound 23c] : 15

###

// reported melting point for each item listed

molecule="N#Cc1ccc(N2CCN(CCC(NC(=O)c3ccc(C(F)(F)F)cc3)c3ccccc3)CC2)cc1 (centres unmarked) [Compound 23c]" obs_value="158 to 160 °C"
molecule="N#Cc1ccc(N2CCN(CCC(NC(=O)c3ccc(Cl)cc3)c3ccccc3)CC2)cc1 (centres unmarked) [Compound 23b]" obs_value="143 to 145 °C"
molecule="N#Cc1ccc(N2CCN(CCC(NC(=O)c3ccc(F)cc3)c3ccccc3)CC2)cc1 (centres unmarked)" obs_value="160 to 162 °C"
molecule="Cc1ccc(N2CCN(CCC(NC(=O)c3ccccc3)c3ccccc3)CC2)cc1 (centres unmarked)" obs_value="165 to 167 °C"
molecule="N#Cc1ccc(N2CCN(C(=O)CC(NC(=O)c3ccc(F)cc3)c3ccccc3)CC2)cc1 (centres unmarked) [Compound 13d]" obs_value="98 to 102 °C"

Lab note: Cc1ccc(N2CCN(CCC(NC(=O)c3ccc(F)cc3)c3ccccc3)CC2)cc1 (centres unmarked) gave melting point of 171 to 173 °C

// N#Cc1ccc(N2CCN(CCC(NC(=O)c3ccc(F)cc3)c3ccc(Cl)c(Cl)c3)CC2)cc1 (centres unmarked) : melting point value = 85 to 88 °C

Entry N#Cc1ccc(C(=O)N2CCN(CCC(NC(=O)c3ccc(F)cc3)c3ccccc3)CC2)cc1 (centres unmarked) [Compound 13b] ; melting point = 80 to 84 °C

###

This listing pairs compounds with measured melting point.

Worked examples, 5 compounds total:
compound="N#Cc1ccc(CN2CCN(CCC(NC(=O)c3ccc(F)cc3)c3ccccc3)CC2)cc1 (stereo not shown) [Compound 13c]" readout_name="melting point" obs_value="83 to 87 °C"
compound="CC(C)c1ccc(C(=O)NC(CCN2CCN(c3ccc(C#N)cc3)CC2)c2ccccc2)cc1 (stereo not shown) [Compound 23d]" readout_name="melting point" obs_value="155 to 158 °C"
compound="O=C(NC(CCN1CCN(c2ccc(F)cc2)CC1)c1ccccc1)c1ccccc1 (stereo not shown)" readout_name="melting point" obs_value="152 to 154 °C"
compound="N#Cc1ccc(N2CCN(CCC(NC(=O)c3ccco3)c3ccccc3)CC2)cc1 (stereo not shown) [Compound 23g]" readout_name="melting point" obs_value="132 to 136 °C"
compound="O=C(NC(CCN1CCN(c2ccc(F)cc2)CC1)c1ccccc1)c1ccc(F)cc1 (stereo not shown)" readout_name="melting point" obs_value="157 to 159 °C"

# melting point of N#Cc1ccc(N2CCN(CCCN(C(=O)c3ccc(F)cc3)c3ccccc3)CC2)cc1 = 82 to 84 °C

Sure, the documented melting point for N#Cc1ccc(N2CCN(CCC(NC(=O)c3ccc(F)cc3)c3ccc(Cl)cc3)CC2)cc1 (stereo not shown) is 121 to 123 °C

###

Biological target: CCR5 (Homo sapiens)
Construct: expressed in transfected cells
Experiment: Cell-cell fusion assay (CCF assay, CCR5-mediated fusion)
Assay type: cell-based
Conditions: CCR5; 10 µM; mean of at least two experiments; DMSO as negative control; read-out: inhibition rate (10 µM), CCR5 fusion activity
readout-name: inhibition at 10 µM (%)

Example cases with answers are listed next.
compound="Cc1ccc(N2CCN(CCC(NC(=O)c3ccccc3)c3ccccc3)CC2)cc1 (stereo not drawn) [Compound 9a]" experimental_target="CCR5 (Homo sapiens)" readout_units=% obs_value=47
compound="O=C(NC(CCN1CCN(c2ccc(F)cc2)CC1)c1ccccc1)c1ccc(F)cc1 (stereo not drawn) [Compound 9c]" experimental_target="CCR5 (Homo sapiens)" readout_units=% obs_value=41
compound="O=C(NC(CCN1CCN(c2ccc(F)cc2)CC1)c1ccccc1)c1ccccc1 (stereo not drawn) [Compound 9d]" experimental_target="CCR5 (Homo sapiens)" readout_units=% obs_value=26
compound="CC(C)c1ccc(C(=O)NC(CCN2CCN(c3ccc(C#N)cc3)CC2)c2ccccc2)cc1 (stereo not drawn) [Compound 23d]" experimental_target="CCR5 (Homo sapiens)" readout_units=% obs_value=20
compound="N#Cc1ccc(N2CCN(C(=O)CC(NC(=O)c3ccc(F)cc3)c3ccccc3)CC2)cc1 (stereo not drawn) [Compound 13d]" experimental_target="CCR5 (Homo sapiens)" readout_units=% obs_value=25
compound="NC(=O)c1ccc(N2CCN(CCC(NC(=O)c3ccc(F)cc3)c3ccccc3)CC2)cc1 (stereo not drawn) [Compound 9h]" experimental_target="CCR5 (Homo sapiens)" readout_units=% obs_value=20

(I) N#Cc1ccc(C(=O)N2CCN(CCC(NC(=O)c3ccc(F)cc3)c3ccccc3)CC2)cc1 (stereo not drawn) [Compound 13b]
(II) Cc1ccc(N2CCN(CCC(NC(=O)c3ccc(F)cc3)c3ccccc3)CC2)cc1 (stereo not drawn) [Compound 9b]
(III) N#Cc1ccc(N2CCN(CCC(NC(=O)C3CCN(C(=O)c4ccccc4)CC3)c3ccccc3)CC2)cc1 (stereo not drawn) [Compound 23f]
## Task Number of compounds to sort: 3. Sort criterion: inhibition at 10 µM, ascending. Hello, could you send the labels back in the order asked? Thank you.
## Result III, I, II
(III: 15%, I: 22%, II: 35%)

###

Test system: recombinant HIV-1 virus pseudotyped with the envelope proteins of the CCR5-tropic virus
Assay: microbe, parasite or virus in culture
Format: cell-based
Conditions: Human immunodeficiency virus 1, SUP-T1, read-out: IC50 (µM), antiviral activity
readout-name: IC50 (µM)
Field: numeric (µM). Do not append units.

For record N#Cc1ccc(N2CCN(CCC(NC(=O)C3CCCCC3)c3ccccc3)CC2)cc1 (stereo not shown) [Compound 23h] the listed IC50 is 0.44

###

Reported IC50 is given for each of the following molecules.
Target: CCR5 (Homo sapiens, UniProt P51681)
Construct: expressed in transfected cells
Sequence (P51681 whole entry): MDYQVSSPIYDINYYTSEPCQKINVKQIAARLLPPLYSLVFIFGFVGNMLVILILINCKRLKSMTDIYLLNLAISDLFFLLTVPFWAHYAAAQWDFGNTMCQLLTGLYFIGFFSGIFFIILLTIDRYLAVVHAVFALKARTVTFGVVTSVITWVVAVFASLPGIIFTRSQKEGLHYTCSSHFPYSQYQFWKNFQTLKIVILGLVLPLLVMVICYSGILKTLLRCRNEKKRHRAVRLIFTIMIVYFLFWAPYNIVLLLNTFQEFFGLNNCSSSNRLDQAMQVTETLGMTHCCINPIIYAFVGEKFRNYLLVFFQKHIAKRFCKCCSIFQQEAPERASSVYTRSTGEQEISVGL
Experiment: Cell-cell fusion assay (CCF assay, CCR5-mediated fusion)
Format: cell-based
Conditions: mean of at least two experiments; DMSO as negative control
Enter your answer as a number in µM; do not include the unit.

IC50 reported for this molecule N#Cc1ccc(N2CCN(CCC(NC(=O)c3ccc(F)cc3)c3ccccc3)CC2)cc1 (stereo not shown) : 0.64

Item: N#Cc1ccc(N2CCN(CCC(NC(=O)c3ccc(Cl)cc3)c3ccccc3)CC2)cc1 (stereo not shown) [Compound 23b] | IC50: 2.87

###

Target: CCR5 (Homo sapiens, UniProt P51681)
Construct: expressed in transfected cells
Assay: Cell-cell fusion assay (CCF assay, CCR5-mediated fusion)
Type: cell-based
Details: mean of at least two experiments; DMSO as negative control
readout-name: IC50 (µM)
Just the number please, in µM, no unit attached.

Reference set (4 entries):
molecule="N#Cc1ccc(N2CCN(CCC(NC(=O)c3ccccc3)c3ccccc3)CC2)cc1 (centres unmarked) [Compound 23a]" readout_name=IC50 obs_value=2.44
molecule="N#Cc1ccc(N2CCN(CCC(NC(=O)c3ccc(F)cc3)c3ccc(Cl)c(Cl)c3)CC2)cc1 (centres unmarked)" readout_name=IC50 obs_value=10
molecule="N#Cc1ccc(N2CCN(CCC(NC(=O)c3ccc(C(F)(F)F)cc3)c3ccccc3)CC2)cc1 (centres unmarked) [Compound 23c]" readout_name=IC50 obs_value=10
molecule="N#Cc1ccc(N2CCN(CCC(NC(=O)C3CCCCC3)c3ccccc3)CC2)cc1 (centres unmarked) [Compound 23h]" readout_name=IC50 obs_value=6.29

Lab note: next molecule to report on.
Reported IC50 for N#Cc1ccc(N2CCN(CCC(NC(=O)c3ccc(F)cc3)c3ccc(Cl)cc3)CC2)cc1 (centres unmarked) was 3.7
